Reference source: paper PMC10257182

Tested on: senescent IMR90 ER:RAS cells (4-OHT-induced)
Assay: Nuclei count (Hoechst, high content imaging) senolytic assay, oncogene-induced senescence (OIS) model, senescent cells
Type: cell-based, human
Conditions: Homo sapiens, IMR-90, Senescent cells; log (dose) [M] -7.33; individual replicates; SUP FIG 4C; read-out: % Cell Survival
viability at 0.04677 µM strictly less than 90% = Criterion met. Otherwise Criterion not met.

Study these solved cases before continuing.
Molecule | Classification
CO[C@H]1C[C@@H]2CC[C@@H](C)[C@@](O)(O2)C(=O)C(=O)N2CCCC[C@H]2C(=O)O[C@H]([C@H](C)C[C@@H]2CC[C@@H](O)[C@H](OC)C2)CC(=O)[C@H](C)/C=C(\C)[C@@H](O)[C@@H](OC)C(=O)[C@H](C)C[C@H](C)/C=C/C=C/C=C/1C [Rapamycin, rapamycin, reference compound] | Criterion not met
O=c1c(O)c(-c2ccc(O)cc2)oc2c(O)c(O)cc(O)c12 | Criterion met
Cc1cc2c(C(C)C)c(O)c(O)c(C=O)c2c(O)c1-c1c(C)cc2c(C(C)C)c(O)c(O)c(C=O)c2c1O | Criterion not met
O=c1c(O)c(-c2ccc(O)cc2O)oc2cc(O)cc(O)c12 | Criterion met

API: the following record is the query input.
Query :: Bench note: check whether COC[C@H]1C[C@@H](c2nc(-c3ccc4c(c3)COc3cc5c(ccc6nc([C@@H]7CC[C@H](C)N7C(=O)[C@@H](NC(=O)OC)C(C)C)[nH]c65)cc3-4)c[nH]2)N(C(=O)[C@H](NC(=O)OC)c2ccccc2)C1 [Velpatasvir, velpatasvir, reference compound] shows viability at 0.04677 µM below 90%
Result :: Criterion met

====

Tested on: senescent A549 cells (etoposide-induced)
Experiment: Nuclei count senolytic assay, therapy-induced senescence (TIS) model, senescent cells
Format: cell-based, human
Conditions: log (dose) [M] -7.33; Senescent cells; mean
Quantity measured: Mean % Cell Survival (%)
Give the value, in units of %, as a plain number.

Query :: Give the measured Mean % Cell Survival of Cc1c(NC(=O)OC[C@@H]2COCCN2)cn2ncnc(Nc3ccc4c(cnn4Cc4cccc(F)c4)c3)c12.Cl.Cl [BMS 599626 2HCL, BMS 599626 dihydrochloride] .
Result :: 119.214

Query :: Give the measured Mean % Cell Survival of CO[C@H]1C[C@H](O[C@H]2CC[C@]3(C)[C@H]4CC[C@]5(C)[C@@H](C6=CC(=O)OC6)CC[C@]5(O)[C@@H]4CC[C@]3(O)C2)O[C@H](C)[C@H]1O[C@@H]1O[C@H](CO)[C@@H](O)[C@H](O)[C@H]1O .
Result :: 62.5957

Query :: Give the measured Mean % Cell Survival of CC(C)=CCc1c(O)cc2oc3cc(O)c(O)c(CC=C(C)C)c3c(=O)c2c1O .
Result :: 114.138

Query :: Give the measured Mean % Cell Survival of C=Cc1c(C)c2cc3nc(cc4[nH]c(cc5nc(cc1[nH]2)C(C)=C5CCC(=O)O)c(CCC(=O)OC)c4C)[C@@]1(C)C3=CC=C(C(=O)OC)[C@H]1C(=O)OC [Verteporfin, verteporfin, reference compound] .
Result :: 89.0589

====

Test system: senescent IMR90 ER:RAS cells (4-OHT-induced)
Test: Nuclei count (Hoechst, high content imaging) senolytic assay, oncogene-induced senescence (OIS) model, senescent cells
Assay type: cell-based, human
Details: Homo sapiens, IMR-90, 72 h, Senescent, log (dose) [M] -5.66, 72 h, mean n=3 (Fig 3C); read-out: Mean % Cell Survival
The following compounds are listed with their measured viability at 2.188 µM values.
Give me the value, and tack the unit on after it.

# count of solved cases: 6
Compound | viability at 2.188 µM
CO[C@H]1C[C@@H]2CC[C@@H](C)[C@@](O)(O2)C(=O)C(=O)N2CCCC[C@H]2C(=O)O[C@H]([C@H](C)C[C@@H]2CC[C@H](n3cnnn3)[C@H](OC)C2)CC(=O)[C@H](C)/C=C(\C)[C@@H](O)[C@@H](OC)C(=O)[C@H](C)C[C@H](C)/C=C/C=C/C=C/1C [Zotarolimus, zotarolimus, reference compound] | 102%
COc1cc(/C=C/C(=O)O[C@H]2CC[C@]34C[C@]35CC[C@]3(C)[C@@H]([C@H](C)CCC=C(C)C)CC[C@@]3(C)[C@@H]5CC[C@H]4C2(C)C)ccc1O [Gamma oryzanol, gamma oryzanol] | 135%
COc1cc(O)c2c(=O)cc(-c3ccc(OC)c(-c4c(O)cc(O)c5c(=O)cc(-c6ccc(O)cc6)oc45)c3)oc2c1 [Ginkgetin, ginkgetin] | 80%
C[C@@H]1O[C@@H](O[C@H]2C[C@@H](O)[C@]3(CO)[C@H]4[C@H](O)C[C@]5(C)[C@@H](C6=CC(=O)OC6)CC[C@]5(O)[C@@H]4CC[C@]3(O)C2)[C@H](O)[C@H](O)[C@H]1O [Ouabain, ouabain, reference compound] | 3.51%
COC[C@H]1C[C@@H](c2nc(-c3ccc4c(c3)COc3cc5c(ccc6nc([C@@H]7CC[C@H](C)N7C(=O)[C@@H](NC(=O)OC)C(C)C)[nH]c65)cc3-4)c[nH]2)N(C(=O)[C@H](NC(=O)OC)c2ccccc2)C1 [Velpatasvir, velpatasvir, reference compound] | 102%
O=c1cc(-c2ccc(O)cc2)oc2cc(O)c(O)c(O)c12 [Scutellarein, scutellarein] | 132%

Query :: Give the measured viability at 2.188 µM of Cc1cnc(C(=O)N[C@H]2CCCCC/C=C\[C@@H]3C[C@@]3(C(=O)NS(=O)(=O)C3CC3)NC(=O)[C@@H]3C[C@@H](Oc4nc5ccccc5c5ccccc45)CN3C2=O)cn1 [Paritaprevir, paritaprevir, reference compound] .
Result :: 70.9%

Query :: Give the measured viability at 2.188 µM of CO[C@H]1C[C@@H]2CC[C@@H](C)[C@@](O)(O2)C(=O)C(=O)N2CCCC[C@H]2C(=O)O[C@H]([C@H](C)C[C@@H]2CC[C@@H](OP(C)(C)=O)[C@H](OC)C2)CC(=O)[C@H](C)/C=C(\C)[C@@H](O)[C@@H](OC)C(=O)[C@H](C)C[C@H](C)/C=C/C=C/C=C/1C [Ridaforolimus, ridaforolimus, reference compound] .
Result :: 164%

Query :: Give the measured viability at 2.188 µM of Cc1c(-c2c(F)cc(C(N)=O)c3[nH]c4c(c23)CC[C@H](C(C)(C)O)C4)cccc1-n1c(=O)c2cccc(F)c2n(C)c1=O [BMS 986142] .
Result :: 96.7%

====

Tested on: senescent IMR90 ER:RAS cells (4-OHT-induced)
Assay: Nuclei count (Hoechst, high content imaging) senolytic assay, oncogene-induced senescence (OIS) model, senescent cells
Format: cell-based, human
Conditions: Homo sapiens, IMR-90, 72 h, Senescent, log (dose) [M] -7, 72 h, mean n=3 (Fig 3C); read-out: Mean % Cell Survival
Quantity measured: viability at 0.1 µM
Give me the value, and tack the unit on after it.

# count of solved cases: 3
Compound | viability at 0.1 µM
O=c1c(O)c(-c2ccc(O)cc2O)oc2cc(O)cc(O)c12 | 96.6%
CO[C@H]1C[C@@H]2CC[C@@H](C)[C@@](O)(O2)C(=O)C(=O)N2CCCC[C@H]2C(=O)O[C@H]([C@H](C)C[C@@H]2CC[C@H](n3cnnn3)[C@H](OC)C2)CC(=O)[C@H](C)/C=C(\C)[C@@H](O)[C@@H](OC)C(=O)[C@H](C)C[C@H](C)/C=C/C=C/C=C/1C [Zotarolimus, zotarolimus, reference compound] | 88.4%
O=c1cc(-c2ccc(O)cc2)oc2cc(O)c(O)c(O)c12 | 115%

Moving on to the next compound.
Query :: Give the measured viability at 0.1 µM of Cc1c(-c2c(F)cc(C(N)=O)c3[nH]c4c(c23)CC[C@H](C(C)(C)O)C4)cccc1-n1c(=O)c2cccc(F)c2n(C)c1=O .
Result :: 98.6%

====

System: senescent IMR90 ER:RAS cells (4-OHT-induced)
Assay: Nuclei count (Hoechst, high content imaging) senolytic assay, oncogene-induced senescence (OIS) model, senescent cells
Type: cell-based, human
Conditions: Senescent, log (dose) [M] -6.33, 72 h, mean n=3 (Fig 3C)
Source text: To test for senolytic activity, we compared the effect of each compound on the total cell number (automated high content image-based analysis of total number of nuclei per well) in non-senescent and senescent IMR90 ER:RAS cultures treated with the top hits from the computational screen (Figs. 2e and 3a–d and Supplementary Fig. 4a–c). The drop in cell number compared to untreated controls is indicated by the nuclei count and reflects cell death[13],[15]. […]
Quantity measured: Mean % Cell Survival (%)
Give the value, in units of %, as a plain number.

# count of solved cases: 3
Compound | Unit tag | Mean % Cell Survival
Cc1c(NC(=O)OC[C@@H]2COCCN2)cn2ncnc(Nc3ccc4c(cnn4Cc4cccc(F)c4)c3)c12.Cl.Cl [BMS 599626 2HCL, BMS 599626 dihydrochloride] | % | 110.896
C=Cc1c(C)c2cc3nc(cc4[nH]c(cc5nc(cc1[nH]2)C(C)=C5CCC(=O)O)c(CCC(=O)OC)c4C)[C@@]1(C)C3=CC=C(C(=O)OC)[C@H]1C(=O)OC [Verteporfin, verteporfin, reference compound] | % | 83.3243
CO[C@H]1C[C@H](O[C@H]2CC[C@]3(C)[C@H]4CC[C@]5(C)[C@@H](C6=CC(=O)OC6)CC[C@]5(O)[C@@H]4CC[C@]3(O)C2)O[C@H](C)[C@H]1O[C@@H]1O[C@H](CO)[C@@H](O)[C@H](O)[C@H]1O [Periplocin, periplocin] | % | 5.142

Moving on to the next compound.
Query :: Give the measured Mean % Cell Survival of CC(C)=CCc1c(O)cc2oc3cc(O)c(O)c(CC=C(C)C)c3c(=O)c2c1O [Gamma mangostin, gamma mangostin] .
Result :: 96.6111
